Target: Broad substrate specificity ATP-binding cassette transporter ABCG2 (Homo sapiens)
Sequence (Q9UNQ0 whole entry): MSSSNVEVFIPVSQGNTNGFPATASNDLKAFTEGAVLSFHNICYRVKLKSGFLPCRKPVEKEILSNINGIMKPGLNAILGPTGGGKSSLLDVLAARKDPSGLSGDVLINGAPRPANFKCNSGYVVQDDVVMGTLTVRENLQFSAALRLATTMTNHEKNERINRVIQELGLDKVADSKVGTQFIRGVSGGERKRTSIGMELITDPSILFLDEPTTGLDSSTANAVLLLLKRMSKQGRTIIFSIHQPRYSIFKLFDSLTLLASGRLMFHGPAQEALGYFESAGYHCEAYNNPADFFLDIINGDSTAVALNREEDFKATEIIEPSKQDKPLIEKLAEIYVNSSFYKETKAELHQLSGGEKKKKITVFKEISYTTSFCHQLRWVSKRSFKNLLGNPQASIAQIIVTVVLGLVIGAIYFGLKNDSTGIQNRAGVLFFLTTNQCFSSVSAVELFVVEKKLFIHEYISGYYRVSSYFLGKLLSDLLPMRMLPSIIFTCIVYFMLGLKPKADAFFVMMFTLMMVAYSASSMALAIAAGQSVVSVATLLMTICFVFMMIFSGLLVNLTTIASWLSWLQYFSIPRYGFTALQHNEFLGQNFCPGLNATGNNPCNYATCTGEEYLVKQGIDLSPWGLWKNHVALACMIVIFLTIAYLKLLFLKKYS
property: IC50

- Cc1[nH]n(C(=O)c2ccncc2)c(=O)c1N=Nc1ccc2ccccc2c1: 5.8 µM
- CC(C)C1(NC(=O)C2CC3c4cccc5[nH]cc(c45)CC3N(C)C2)OC2(O)C3CCCN3C(=O)C(Cc3ccccc3)N2C1=O (stereo not given) [Dihydroergocristine]: 11.8 µM
- CC1CCC2(OC1)OC1C(O)C3C4CCC5CC(OC6OC(CO)C(OC7OC(CO)C(O)C(OC8OCC(O)C(O)C8O)C7OC7OC(CO)C(O)C(OC8OC(CO)C(O)C(O)C8O)C7O)C(O)C6O)C(O)CC5(C)C4CCC3(C)C1C2C (stereo not given): 9.7 µM
- Cc1ccc(NC(=O)c2cc3ccccc3cc2O)c(C)c1: 5.4 µM
- NN=C1C(OC(=O)Nc2cccc(Cl)c2)=Nc2ccccc21: 4.6 µM
